Values compiled from ChEMBL document CHEMBL3120093.

// reported Vd for each item listed
Experiment: Volume of distribution in rat at 2 mg/kg, iv after 24 hrs
Format: ADME, organism-based
Parameters: dose 2 mg/kg, route intravenous
Details: in vivo
TEST READOUT: Vd (L/kg)

SMILES TEXT	UNIT SYMBOL	ENDPOINT VALUE
CN(C)[C@@H](C(=O)N1CCC[C@H]1c1ncc(-c2ccc(-c3ccc(-c4cnc([C@@H]5CCCN5C(=O)[C@H]5CCCO5)[nH]4)cc3)cc2)[nH]1)c1ccccc1	L/kg	60
COC(=O)N[C@@H](C(=O)N1CCC[C@H]1c1ncc(-c2ccc(-c3ncc(-c4cnc([C@@H]5CCCN5C(=O)[C@H](NC(=O)OC)c5ccccc5)[nH]4)cn3)cc2)[nH]1)c1ccccc1	L/kg	1.7
COC(=O)N[C@@H](C(=O)N1CCC[C@H]1c1ncc(-c2ccc(-c3ccc(-c4cnc([C@@H]5CCCN5C(=O)[C@H]5CCCO5)[nH]4)cc3)cc2)[nH]1)c1ccccc1	L/kg	0.3
O=C([C@@H](c1ccccc1)N1CCCCC1)N1CCC[C@H]1c1ncc(-c2ccc(-c3ccc(-c4cnc([C@@H]5CCCN5C(=O)[C@@H](c5ccccc5)N5CCCCC5)[nH]4)cc3)cc2)[nH]1	L/kg	20

---

Assay: AUC in dog at 3 mg/kg, po after 24 hrs
Format: ADME, organism-based, Canis lupus familiaris
Set-up: time < 24 hr, dose 3 mg/kg, route oral
Conditions: plasma

SMILES TEXT	AUC at 24 h, µM·h
COC(=O)N[C@@H](C(=O)N1CCC[C@H]1c1ncc(-c2ccc(-c3ccc(-c4cnc([C@@H]5CCCN5C(=O)[C@H]5CCCO5)[nH]4)cc3)cc2)[nH]1)c1ccccc1	1.52
O=C([C@@H](c1ccccc1)N1CCCCC1)N1CCC[C@H]1c1ncc(-c2ccc(-c3ccc(-c4cnc([C@@H]5CCCN5C(=O)[C@@H](c5ccccc5)N5CCCCC5)[nH]4)cc3)cc2)[nH]1	0.272
CN(C)[C@@H](C(=O)N1CCC[C@H]1c1ncc(-c2ccc(-c3ccc(-c4cnc([C@@H]5CCCN5C(=O)[C@H]5CCCO5)[nH]4)cc3)cc2)[nH]1)c1ccccc1	0.436

---

Experiment: Oral bioavailability in dog at […] after 24 hrs
Format: ADME, organism-based, Canis lupus familiaris
Conditions: in vivo

SMILES TEXT	bioavailability at 24 h [%]
COC(=O)N[C@H](C(=O)N1CCC[C@H]1c1nc(-c2ccc(-c3ccc(-c4c[nH]c([C@@H]5CCCN5C(=O)[C@@H](NC(=O)OC)C(C)C)n4)cc3)cc2)c[nH]1)C(C)C	108

---

Here, each record is paired with measured concentration at 24 h data.
Assay: Plasma concentration in mouse at 20 mg/kg, po after 24 hrs
Format: ADME, organism-based
Set-up: dose 20 mg/kg, route oral
TEST READOUT: concentration at 24 h

> print(dat)
                                smiles.text  endpoint.value
1  CN(C)[C@@H](C(=O)N1CCC[C@H]1c1ncc(-c2ccc(-c3ccc(-c4cnc([C@@H]5CCCN5C(=O)[C@H]5CCCO5)[nH]4)cc3)cc2)[nH]1)c1ccccc1           25 nM
2  COC(=O)N[C@@H](C(=O)N1CCC[C@H]1c1ncc(-c2ccc(-c3ccc(-c4cnc([C@@H]5CCCN5C(=O)[C@H]5CCCO5)[nH]4)cc3)cc2)[nH]1)c1ccccc1           59 nM
